testedOn: bombesin receptor of rat brain membranes (rat)
assayName: 125I-Bombesin competition, rat brain membranes
Square brackets hold non-standard residues; d marks the D form. Ends that are not written are not given here. pGlu = O=C1CC[C@@H](C(=O)O)N1; Nle = CCCC[C@H](N)C(=O)O
measuredMetric: % Inhibition (%)

INSERT INTO results (binder, unitsymbol, readoutnumber) VALUES
  ('AVCH-NH2 (also: bridge at 3 via oxorhenium(V) N3S1 chelate, other end not in the chain) [metallopeptide 11-12]', '%', 5),
  ('[dF]QWAVC-NH2 (bridge (positions not given here) via ReOCl3(PPh3)2; also: oxorhenium(V) N3S1 tetradentate complex at Cys 6) [metallopeptide 11-3]', '%', -81),
  ('[dF]QWVCGHLL-NH2 (bridge (positions not given here) via ReOCl3(PPh3)2; also: oxorhenium(V) N3S1 tetradentate complex at Cys 5) [metallopeptide 12-1]', '%', 2),
  ('WAVC-NH2 (also: bridge at 4 via oxorhenium(V) N3S1 chelate, other end not in the chain) [metallopeptide 11-14]', '%', 8),
  ('XQRLGNCWAVGHLX (Pyr 1; Nle 14; C-terminal amide; Re complexed at Cys 7) [metallopeptide 7-8]', '%', 84),
  ('[dF]QWAVCHL-NH2 (bridge (positions not given here) via ReOCl3(PPh3)2; also: oxorhenium(V) N3S1 tetradentate complex at Cys 6) [metallopeptide 11-1]', '%', 98),
  ('[pGlu]QRCLGNQWAVGHL[Nle]-NH2 (also: Re(V)=O N3S1 chelate at Cys4 (from ReOCl3(PPh3)2)) [metallopeptide 6-12]', '%', 97),
  ('[pGlu]QRLGNQWCAVGHL[Nle]-NH2 (also: Re(V)=O N3S1 chelate at Cys9 (from ReOCl3(PPh3)2)) [metallopeptide 6-7]', '%', 62),
  ('WAVCHLL-NH2 (also: bridge at 4 via oxorhenium(V) N3S1 chelate, other end not in the chain) [metallopeptide 11-5]', '%', 18),
  ('[dF]QWAVCGHLL-NH2 (bridge (positions not given here) via ReOCl3(PPh3)2; also: oxorhenium(V) N3S1 tetradentate complex at Cys 6) [metallopeptide 8-5]', '%', 70),
  ('AVCHL-NH2 (also: bridge at 3 via oxorhenium(V) N3S1 chelate, other end not in the chain) [metallopeptide 11-9]', '%', 7),
  ('[pGlu]QRLGCNQWAVGHL[Nle]-NH2 (also: oxorhenium(V) N3S1 chelate at Cys6) [metallopeptide 6-10]', '%', 93),
  ('[dF]QWACVHLL-NH2 (bridge (positions not given here) via ReOCl3(PPh3)2; also: oxorhenium(V) N3S1 tetradentate complex at Cys 5) [metallopeptide 12-2]', '%', 3),
  ('XQRLGCQWAVGHLX (Pyr 1; Nle 14; C-terminal amide; Re complexed at Cys 6) [metallopeptide 7-9]', '%', 93),
  ('[dF]Q[dW]AVCHLL-NH2 (bridge (positions not given here) via ReOCl3(PPh3)2; also: oxorhenium(V) N3S1 tetradentate complex at Cys 6) [metallopeptide 10-5]', '%', 6),
  ('XQRLGNQWCVGHLX (Pyr 1; Nle 14; C-terminal amide; Re complexed at Cys 9) [metallopeptide 7-6]', '%', 91),
  ('[pGlu]QRLGNQWAVGHCL[Nle]-NH2 (also: Re(V)=O N3S1 chelate at Cys13 (from ReOCl3(PPh3)2)) [metallopeptide 6-3]', '%', 71),
  ('[dF]QWACVGHLL-NH2 (not fully specified (bridges); printed as D-Phe-Gln-Trp-Ala-Cys-Val-Gly-His-Leu-Leu-NH2; also: oxorhenium(V) N3S1 tetradentate complex at Cys 5) [metallopeptide 8-6]', '%', 35);
